test: in vitro; conditions: WNV CC50
measuredAttribute: CC50 (µM)
Provide the reading as a plain figure in µM.

Worked cases, answers included:
>>> print(df.to_string())
                            smilesrepr  measurednumber
0   CCOC(=O)c1cnc2c(C)cccc2c1NCc1ccco1            49.1
1    COc1ccc2nc(C)cc(Nc3ccc(I)cc3)c2c1            35.5
2  CCOC(=O)c1cnc2c(OC)cccc2c1NCc1ccco1            29.9

Query string: Which value of CC50 has been reported for `Cc1cc(Nc2cccc(C(F)(F)F)c2)c2cc(Cl)ccc2n1` in the records?
Result string: 60

Query string: Thanks! And `CCOC(=O)c1cnc2c(ccc3ccccc32)c1NCc1ccco1` ?
Result string: 41.6

Query string: Thanks! And `Cc1ccc2nc(C)cc(Nc3ccccc3)c2c1` ?
Result string: 52.3

Query string: Thanks! And `Cc1cc(Nc2ccc(C)c(Cl)c2)c2cccc(C)c2n1` ?
Result string: 66.2

Query string: Thanks! And `Cc1ccc2nc(C)cc(NCc3ccco3)c2c1` ?
Result string: 57.9

Query string: Thanks! And `CCOC(=O)c1cnc2c(Cl)cccc2c1NCc1ccco1` ?
Result string: 48.3
